# TARGET DESC: LIMK2, P53671
# Sequence (P53671 143-248): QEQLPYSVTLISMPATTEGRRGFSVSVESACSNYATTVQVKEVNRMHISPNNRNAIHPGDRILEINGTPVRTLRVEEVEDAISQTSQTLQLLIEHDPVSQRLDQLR
# EXPERIMENT: holdup assay
# Set-up: key: below the threshold = too weak to quantify, mostly under pKd 3.1 to 4
# CONDITION CONTEXT: plain residues with an end cap or a label only (N-terminal biotin on a linker: ado-ado)
MEASURE NAME: pKd

{"BINDER": "NTALVESEDL [PALLS, Q8WX93;Q8WX93-1]", "MEASURE NAME": "pKd", "RESULT": "below the threshold"}
{"BINDER": "TFSRRPKTRV [CD226, Q15762]", "MEASURE NAME": "pKd", "RESULT": "below the threshold"}
{"BINDER": "GTMFLRETSL [GUCY1A2, P33402]", "MEASURE NAME": "pKd", "RESULT": "below the threshold"}
{"BINDER": "THHRKIHTRV [ZNF599, Q96NL3]", "MEASURE NAME": "pKd", "RESULT": "below the threshold"}
{"BINDER": "YAEKRMLTEV [KCNA6, P17658]", "MEASURE NAME": "pKd", "RESULT": "below the threshold"}

# input for lookup
RSPVATATSC [DUSP5, Q16690] yielded pKd of below the threshold
